# Test system: THRa homodimer (NR concentration 90 nM)
# test.details: PBM binding z-score (relative to random genomic background probes); higher = stronger binding; sequences stand for … in GC…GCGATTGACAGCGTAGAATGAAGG
Returns one of MET or NOT MET; MET when PBM binding z-score is >= -0.1.

These solved cases illustrate the format of a correct answer.
[[record]]
biopolymer_sequence = "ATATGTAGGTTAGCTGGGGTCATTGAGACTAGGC"
class_assignment = "MET"

[[record]]
biopolymer_sequence = "TCGACTAGGTTAGGGGCATTCAGAATGGCGTCGA"
class_assignment = "MET"

[[record]]
biopolymer_sequence = "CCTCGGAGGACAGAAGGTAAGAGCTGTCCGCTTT"
class_assignment = "NOT MET"


Item `GCGAGTGGGGCATCAGCAGGTTACCATAACTTAA` with PBM binding z-score of -0.1 or above?
MET

Ok, now `GCAGACAGGTGAAACGAAGGTAACTCAGGGTGGC`
NOT MET

Ok, now `TCGTATAGGTAAATGCTAGGTGAAAGTCCGATCT`
MET

Ok, now `GGAACGAGGGCAAATTTGATAGCATCTGTCGACG`
NOT MET

Ok, now `TCATATAGGTGAAGGTGAAAGTCGAACGATATGA`
NOT MET

Ok, now `TCTTGTTGATCAACAGGAGGTTAAGAAAGATCGA`
NOT MET

Ok, now `GCGACTGGGGCCTCAGCAGGTTACCATAACTTAA`
NOT MET

Ok, now `CCGAGAAGGTTATGGGGCATTCAGGCAACGGTGA`
MET

Ok, now `TCATATAGGTAAAAAGGTGAAAGTCCGTAAGTTA`
MET

* * *

# Tested on: PXR:RXRa (NR concentration 270 nM, RXRa partner concentration 90 nM)
# test.details: PBM binding z-score (relative to random genomic background probes); higher = stronger binding; sequences stand for … in GC…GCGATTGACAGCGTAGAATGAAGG
quantity.measured: PBM binding z-score
Form field (numeric): enter value without unit.

[[record]]
biopolymer_sequence = "CCAGACAGGTGTAAGGTAACTCAGTCTGGTACGC"
readout_number = -0.318


Reported PBM binding z-score, sequence `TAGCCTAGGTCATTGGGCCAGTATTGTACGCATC` : ____
1.57

Ok, now `CGTCAAAGTTCAACTAGGGTAACGTAAAGCACGC`
5.46

Ok, now `TCTGCTAGGTAAGTTGGTCAGCTAACGAGCTGCC`
-0.474

Ok, now `CAAACTAGGTCACGAAAGGTCATAGTCGAATGAC`
6.74

Ok, now `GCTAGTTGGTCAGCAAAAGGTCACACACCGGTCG`
5.02

* * *

PBM binding z-score listing for selected sequences.
# Tested on: PPARg homodimer (NR concentration 180 nM)
# test.details: PBM binding z-score (relative to random genomic background probes); higher = stronger binding; sequences stand for … in GC…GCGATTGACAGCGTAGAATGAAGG
Form field (numeric): enter value without unit.

[[record]]
biopolymer_sequence = "TCTTGTAGATCAAGCACGTTAAGAAAGCCTGAGT"
readout_number = 0.56

[[record]]
biopolymer_sequence = "CCTAGTTGGTCAAGGTCACACAAGCTATAGGTAC"
readout_number = 4.16

[[record]]
biopolymer_sequence = "TCTTGTAGATCAACTGGAGGTTAAGAAAGATCGA"
readout_number = -0.255

[[record]]
biopolymer_sequence = "TGTCAAAGTTCAAAGGTATCGTAAGTATCCACAC"
readout_number = 2.53

[[record]]
biopolymer_sequence = "ACTTACGGGTCAACGAGGTTATAGCGCGCGTATA"
readout_number = 2.15

[[record]]
biopolymer_sequence = "CCTTACGGGTCACTGACAGGTTATAGTATTTGGA"
readout_number = 2.3

[[record]]
biopolymer_sequence = "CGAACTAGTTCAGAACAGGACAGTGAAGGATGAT"
readout_number = -0.297

[[record]]
biopolymer_sequence = "CGTCCAAGGTCATAGGAGGTCAGTTAAGACAGAT"
readout_number = 3.95


Reported PBM binding z-score, sequence `GCTGCTAGGTCAGGTTGGTCACCTAACGGGTACG` : ____
0.888

Ok, now `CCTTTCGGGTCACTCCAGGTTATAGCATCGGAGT`
2

Ok, now `TCTTGTAGATCAAGCAGGTGAAGAAAGCCTGAGT`
-0.0595

Ok, now `TCGAGTAGGTTACGAATGGGGCATTCAGCTTTCT`
-0.342
